# TARGET_DESC: D(2) dopamine receptor (Homo sapiens, UniProt P14416)
# Sequence (P14416 whole entry): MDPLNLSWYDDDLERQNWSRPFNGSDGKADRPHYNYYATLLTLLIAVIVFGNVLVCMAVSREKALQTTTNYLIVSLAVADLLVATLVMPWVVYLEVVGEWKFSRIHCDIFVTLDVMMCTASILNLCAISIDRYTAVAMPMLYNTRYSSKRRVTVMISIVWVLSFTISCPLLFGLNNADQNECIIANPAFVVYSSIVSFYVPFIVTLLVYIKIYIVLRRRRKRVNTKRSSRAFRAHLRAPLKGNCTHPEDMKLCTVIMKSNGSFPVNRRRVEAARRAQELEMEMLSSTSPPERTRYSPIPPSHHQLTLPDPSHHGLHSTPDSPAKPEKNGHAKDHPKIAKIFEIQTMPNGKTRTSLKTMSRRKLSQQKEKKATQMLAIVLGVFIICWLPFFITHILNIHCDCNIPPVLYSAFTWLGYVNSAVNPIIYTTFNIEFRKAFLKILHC
# PROTOCOL_TEXT: Binding affinity towards human cloned Dopamine D2 receptor in CHO cells by [3H]spiperone displacement.
EXPERIMENTAL_ENDPOINT: Ki (µM)
Give the value, in units of µM, as a plain number.

SMILES_STR	UNITS_OF_MEASURE	Ki
C(=C\Cn1c(-c2ccc(OCCCN3CCN(c4ccccc4)CC3)cc2)nc2ccccc21)/Cn1c(-c2ccc(OCCCN3CCN(c4ccccc4)CC3)cc2)nc2ccccc21	µM	3.94
CCN(CC)CCCOc1ccc(-c2nc3ccccc3n2C/C=C/Cn2c(-c3ccccc3)nc3ccccc32)cc1	µM	6.53

query: Check the records and state Ki for `CCN(CC)CCCOc1ccc(-c2nc3ccccc3n2CCCCCCn2c(-c3ccc(OCCCN(CC)CC)cc3)nc3ccccc32)cc1`
result: 1.75

query: Check the records and state Ki for `CCN(CC)CCCOc1ccc(-c2nc3ccccc3n2C/C=C/Cn2c(-c3ccc(OCCCC4CCCCC4)cc3)nc3ccccc32)cc1`
result: 1.03

query: Check the records and state Ki for `CCN(CC)CCCOc1ccc(-c2nc3ccccc3n2C/C=C/Cn2c(-c3ccc(OCCCN(CC)CC)cc3)nc3ccccc32)cc1`
result: 2.35

query: Check the records and state Ki for `CCN(CC)CCCOc1ccc(-c2nc3ccccc3n2Cc2ccc(Cn3c(-c4ccc(OCCCN(CC)CC)cc4)nc4ccccc43)cc2)cc1`
result: 3.44

----------
# TARGET_DESC: D(3) dopamine receptor (Homo sapiens, UniProt P35462)
# Sequence (P35462 whole entry): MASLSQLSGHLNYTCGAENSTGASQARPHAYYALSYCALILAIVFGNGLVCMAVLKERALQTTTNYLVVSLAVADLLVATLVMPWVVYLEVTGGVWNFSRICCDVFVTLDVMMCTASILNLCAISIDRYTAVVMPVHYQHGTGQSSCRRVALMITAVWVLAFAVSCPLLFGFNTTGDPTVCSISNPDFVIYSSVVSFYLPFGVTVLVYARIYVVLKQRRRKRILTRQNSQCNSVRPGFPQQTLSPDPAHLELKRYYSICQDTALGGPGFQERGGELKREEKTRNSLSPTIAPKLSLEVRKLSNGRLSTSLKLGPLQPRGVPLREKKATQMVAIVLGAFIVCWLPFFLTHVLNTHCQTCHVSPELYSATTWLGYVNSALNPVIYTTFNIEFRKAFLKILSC
# PROTOCOL_TEXT: Binding affinity towards human cloned Dopamine D3 receptor in CHO cells by [3H]spiperone displacement.
EXPERIMENTAL_ENDPOINT: pKi
pKi is defined as minus the log10 of a concentration measured in mol/L.

SMILES_STR	VALUE_OBSERVED
CCN(CC)CCCOc1ccc(-c2nc3ccccc3n2CC=CCn2c(-c3ccc(OCCCN(CC)CC)cc3)nc3ccccc32)cc1	7.06
CCN(CC)CCCOc1ccc(-c2nc3ccccc3n2CCCCCCn2c(-c3ccc(OCCCN(CC)CC)cc3)nc3ccccc32)cc1	6.88

query: Check the records and state pKi for `CCCN(CCC)CCCOc1ccc(-c2nc3ccccc3n2C/C=C/Cn2c(-c3ccc(OCCCN(CCC)CCC)cc3)nc3ccccc32)cc1`
result: 8.30

query: Check the records and state pKi for `CCN(CC)CCCOc1ccc(-c2nc3ccccc3n2Cc2ccc(Cn3c(-c4ccc(OCCCN(CC)CC)cc4)nc4ccccc43)cc2)cc1`
result: 6.74

query: Check the records and state pKi for `CCN(CC)CCCOc1ccc(-c2nc3ccccc3n2CCCCn2c(-c3ccc(OCCCN(CC)CC)cc3)nc3ccccc32)cc1`
result: 7.55

query: Check the records and state pKi for `C(=C\Cn1c(-c2ccc(OCCCN3CCN(c4ccccc4)CC3)cc2)nc2ccccc21)/Cn1c(-c2ccc(OCCCN3CCN(c4ccccc4)CC3)cc2)nc2ccccc21`
result: 6.56

query: Check the records and state pKi for `CCN(CC)CCCOc1ccc(-c2nc3ccccc3n2C/C=C/Cn2c(-c3ccc(OCCCC4CCCCC4)cc3)nc3ccccc32)cc1`
result: 7.41

----------
# TARGET_DESC: UniProt:P14416
# PROTOCOL_TEXT: Binding affinity towards human cloned Dopamine D2 receptor in CHO cells by [3H]spiperone displacement.
EXPERIMENTAL_ENDPOINT: Ki

SMILES_STR	TARGET_DESC	EXPERIMENTAL_ENDPOINT	VALUE_OBSERVED
CCN(CC)CCCOc1ccc(-c2nc3ccccc3n2CC=CCn2c(-c3ccc(OCCCN(CC)CC)cc3)nc3ccccc32)cc1	UniProt:P14416	Ki	1520 nM
CCN(CC)CCCOc1ccc(-c2nc3ccccc3n2CCCCn2c(-c3ccc(OCCCN(CC)CC)cc3)nc3ccccc32)cc1	UniProt:P14416	Ki	1490 nM
CCN(CC)CCCOc1ccc(-c2nc3ccccc3n2C/C=C/Cn2c(C)nc3ccccc32)cc1	UniProt:P14416	Ki	> 3330 nM
CCN(CC)CCCOc1ccc(-c2nc3ccccc3n2C/C=C/Cn2c(-c3ccc(OCCCN4CCN(c5ccccc5)CC4)cc3)nc3ccccc32)cc1	UniProt:P14416	Ki	803 nM
CCN(CC)CCCOc1ccc(-c2nc3ccccc3n2C/C=C/Cn2c(-c3ccc(OC)cc3)nc3ccccc32)cc1	UniProt:P14416	Ki	1410 nM
C(=C\Cn1c(-c2ccc(OCCCN3CCCCC3)cc2)nc2ccccc21)/Cn1c(-c2ccc(OCCCN3CCCCC3)cc2)nc2ccccc21	UniProt:P14416	Ki	517 nM

query: Check the records and state Ki for `CCCN(CCC)CCCOc1ccc(-c2nc3ccccc3n2C/C=C/Cn2c(-c3ccc(OCCCN(CCC)CCC)cc3)nc3ccccc32)cc1`
result: 343 nM

query: Check the records and state Ki for `CN(C)CCCOc1ccc(-c2nc3ccccc3n2C/C=C/Cn2c(-c3ccc(OCCCN(C)C)cc3)nc3ccccc32)cc1`
result: 4990 nM

query: Check the records and state Ki for `C(=C\Cn1c(-c2ccc(OCCCN3CCCC3)cc2)nc2ccccc21)/Cn1c(-c2ccc(OCCCN3CCCC3)cc2)nc2ccccc21`
result: 56 nM

query: Check the records and state Ki for `CCCCN(CCCC)CCCOc1ccc(-c2nc3ccccc3n2C/C=C/Cn2c(-c3ccc(OCCCN(CCCC)CCCC)cc3)nc3ccccc32)cc1`
result: 472 nM
